Entries annotated with measured pIC50
# target_or_system: human FASN (Homo sapiens)
# Construct: was purified from SKBR3 cells using procedures modified from those in Jayakumar et al; endogenous in cells; host or cells: SKBR3 human breast cancer cells (ATCC); Endogenous enzyme purified by ammonium sulfate precipitation and a mono Q column
# Sequence (P49327 whole entry): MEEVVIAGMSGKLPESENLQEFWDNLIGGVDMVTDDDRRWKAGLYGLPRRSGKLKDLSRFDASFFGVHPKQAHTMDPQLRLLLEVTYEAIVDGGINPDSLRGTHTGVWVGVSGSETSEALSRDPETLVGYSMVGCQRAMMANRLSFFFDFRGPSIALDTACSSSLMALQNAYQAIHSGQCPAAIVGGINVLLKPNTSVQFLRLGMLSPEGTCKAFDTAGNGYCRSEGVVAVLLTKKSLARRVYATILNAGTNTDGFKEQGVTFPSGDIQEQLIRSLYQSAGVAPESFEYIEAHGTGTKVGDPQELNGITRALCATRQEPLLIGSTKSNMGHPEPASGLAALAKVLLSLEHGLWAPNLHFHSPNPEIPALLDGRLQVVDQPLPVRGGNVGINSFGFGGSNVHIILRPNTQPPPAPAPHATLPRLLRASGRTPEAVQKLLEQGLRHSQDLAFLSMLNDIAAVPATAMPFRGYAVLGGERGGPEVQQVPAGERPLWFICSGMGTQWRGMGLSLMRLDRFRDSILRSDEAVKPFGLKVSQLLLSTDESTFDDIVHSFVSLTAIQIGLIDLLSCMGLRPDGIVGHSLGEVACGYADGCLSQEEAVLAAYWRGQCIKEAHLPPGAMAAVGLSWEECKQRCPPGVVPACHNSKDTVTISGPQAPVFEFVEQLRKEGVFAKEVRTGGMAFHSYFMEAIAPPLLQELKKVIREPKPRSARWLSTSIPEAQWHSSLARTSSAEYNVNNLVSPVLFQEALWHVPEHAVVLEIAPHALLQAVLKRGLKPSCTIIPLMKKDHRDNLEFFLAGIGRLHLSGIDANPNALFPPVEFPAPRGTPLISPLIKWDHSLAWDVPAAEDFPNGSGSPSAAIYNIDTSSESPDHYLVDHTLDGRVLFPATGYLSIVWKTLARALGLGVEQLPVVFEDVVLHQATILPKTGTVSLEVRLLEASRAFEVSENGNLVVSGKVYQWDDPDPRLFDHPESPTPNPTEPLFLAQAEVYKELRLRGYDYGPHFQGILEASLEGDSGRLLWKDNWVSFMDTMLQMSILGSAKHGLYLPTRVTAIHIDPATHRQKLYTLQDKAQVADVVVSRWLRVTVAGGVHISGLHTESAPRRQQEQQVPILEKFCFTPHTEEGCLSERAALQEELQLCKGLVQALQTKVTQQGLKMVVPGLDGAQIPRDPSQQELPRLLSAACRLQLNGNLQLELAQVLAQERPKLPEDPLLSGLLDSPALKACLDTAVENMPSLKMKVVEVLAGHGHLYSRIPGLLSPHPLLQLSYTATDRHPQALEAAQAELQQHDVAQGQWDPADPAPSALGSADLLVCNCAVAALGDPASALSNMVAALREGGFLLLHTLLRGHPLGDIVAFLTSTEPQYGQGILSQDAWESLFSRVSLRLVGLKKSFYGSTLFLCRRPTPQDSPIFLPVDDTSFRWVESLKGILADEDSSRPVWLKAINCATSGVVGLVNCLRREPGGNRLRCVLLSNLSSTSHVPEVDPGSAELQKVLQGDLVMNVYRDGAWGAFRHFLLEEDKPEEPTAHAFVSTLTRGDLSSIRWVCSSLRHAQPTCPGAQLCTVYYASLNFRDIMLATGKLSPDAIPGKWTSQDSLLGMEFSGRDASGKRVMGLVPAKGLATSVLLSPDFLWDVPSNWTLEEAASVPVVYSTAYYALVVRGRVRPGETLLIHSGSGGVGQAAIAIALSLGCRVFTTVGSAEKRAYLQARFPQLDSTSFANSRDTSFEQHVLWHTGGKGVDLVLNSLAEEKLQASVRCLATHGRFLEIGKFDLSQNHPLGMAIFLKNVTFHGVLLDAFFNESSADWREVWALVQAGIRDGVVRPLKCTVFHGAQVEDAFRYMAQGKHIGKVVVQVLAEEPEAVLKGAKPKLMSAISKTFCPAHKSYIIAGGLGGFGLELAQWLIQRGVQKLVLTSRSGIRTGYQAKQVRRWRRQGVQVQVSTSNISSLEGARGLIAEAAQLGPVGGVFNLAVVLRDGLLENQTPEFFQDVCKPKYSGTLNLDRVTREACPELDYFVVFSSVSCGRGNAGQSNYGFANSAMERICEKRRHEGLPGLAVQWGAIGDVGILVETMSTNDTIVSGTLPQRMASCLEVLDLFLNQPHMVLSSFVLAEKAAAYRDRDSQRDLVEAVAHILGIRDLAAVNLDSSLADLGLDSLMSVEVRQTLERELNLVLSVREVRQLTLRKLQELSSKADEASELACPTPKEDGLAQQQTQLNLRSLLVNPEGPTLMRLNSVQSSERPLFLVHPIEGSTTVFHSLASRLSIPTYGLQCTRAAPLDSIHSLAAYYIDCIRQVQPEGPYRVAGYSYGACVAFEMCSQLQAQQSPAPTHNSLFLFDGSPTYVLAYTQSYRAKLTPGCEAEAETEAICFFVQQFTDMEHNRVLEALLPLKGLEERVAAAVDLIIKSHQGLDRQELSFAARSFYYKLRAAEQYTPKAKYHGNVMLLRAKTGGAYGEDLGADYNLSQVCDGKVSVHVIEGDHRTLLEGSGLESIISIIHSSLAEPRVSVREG
# procedure_details: FASN NADPH Consumption Assay
# Type: biochemical
# recorded_conditions: human FASN purified from SKBR3 cells; starred symbols
pIC50: −log10 of the molar value.

Solved cases below.
CCN(C(=O)n1nnn(-c2ccccc2SC)c1=O)C1CCCCC1 ... 5.00 to 6.00
CCN(C(=O)n1nnn(-c2c(F)cccc2F)c1=O)c1ccc(N(S(C)(=O)=O)S(C)(=O)=O)cc1F ... > 7.22
CCN(C(=O)n1nnn(-c2c(Cl)cccc2Cl)c1=O)c1ccc(C(=O)NS(=O)(=O)c2ccccc2)cc1 ... 6.60 to 7.22

Summary line: `CCN(C(=O)n1nnn(-c2c(Cl)cccc2Cl)c1=O)c1cc(C(=O)O)ccc1Cl` , human FASN (Homo sapiens), reported pIC50 = > 7.22

Reading of pIC50 for `CCCCC#Cc1ccc(N(C)C(=O)n2nnn(-c3c(F)cccc3F)c2=O)cc1` with human FASN (Homo sapiens): 6.00 to 6.60

* * *

Readings of IC50 for the listed compounds
# target_or_system: human FASN (Homo sapiens)
# Construct: was purified from SKBR3 cells using procedures modified from those in Jayakumar et al; endogenous in cells; host or cells: SKBR3 human breast cancer cells (ATCC); Endogenous enzyme purified by ammonium sulfate precipitation and a mono Q column
# procedure_details: FASN NADPH Consumption Assay
# Type: biochemical
# recorded_conditions: human FASN purified from SKBR3 cells; starred symbols

The following compounds have reported results that may help.
CCN(C(=O)n1nnn(-c2ccccc2)c1=O)C1CCCCC1 ... > 10000 nM
CCN(C(=O)n1nnn(-c2c(Cl)cccc2Cl)c1=O)c1ccc(N)cc1 ... 60 to 250 nM
CN(C)C(=O)[C@@H]1CCCN1C(=O)n1nnn(-c2c(Cl)cccc2Cl)c1=O ... > 10000 nM
O=C(OCc1ccccc1)c1ccc(N(CCc2ccccc2)C(=O)n2nnn(-c3c(Cl)cccc3Cl)c2=O)cc1 ... > 10000 nM
CCN(C(=O)n1nnn(-c2c(Cl)cccc2Cl)c1=O)C1CCCC(C(=O)NCC(N)=O)C1 (stereo not shown) ... 1000 to 10000 nM

Note to self: IC50 of `CC(C)(C)OC(=O)N[C@H]1CCN(C(=O)n2nnn(-c3c(Cl)cccc3Cl)c2=O)C1` with human FASN (Homo sapiens) was > 10000 nM

Simply: CCN(C(=O)n1nnn(-c2c(Cl)cccc2Cl)c1=O)C1CCOC(C)(C)C1 (stereo not shown) , human FASN (Homo sapiens), IC50 = 1000 to 10000 nM

# CCN(C(=O)n1nnn(-c2c(Cl)cccc2Cl)c1=O)C1CCC(C(=O)NC)CC1 (stereo not shown) with human FASN (Homo sapiens): IC50 is 1000 to 10000 nM

The reported human FASN (Homo sapiens) IC50 of `CCN(C(=O)n1nnn(-c2c(F)cc(F)cc2Br)c1=O)c1ccccc1` is 60 to 250 nM

IC50 of `O=C(N1CCCCc2ccccc21)n1nnn(-c2c(F)cccc2Br)c1=O` , assay on human FASN (Homo sapiens), is 250 to 1000 nM

Let me check: CCN(C(=O)n1nnn(-c2c(Cl)cccc2Cl)c1=O)C1CCCN(C(=O)Cc2ccccc2)C1 (stereo not shown) , system human FASN (Homo sapiens), measured IC50 is 1000 to 10000 nM

// assay human FASN (Homo sapiens), entry `CN(C(=O)n1nnn(-c2ccccc2Cl)c1=O)C1CCCCC1` , IC50 value = 1000 to 10000 nM

Readout IC50 for `CN(C(=O)n1nnn(-c2c(F)cccc2F)c1=O)c1ccccc1C(F)(F)F` , test system human FASN (Homo sapiens), was 60 to 250 nM

Record CCN(C(=O)n1nnn(-c2c(Cl)cccc2Cl)c1=O)C1CCC(NC(=O)OC(C)(C)C)CC1 (stereo not shown) / human FASN (Homo sapiens), IC50 recorded as > 10000 nM

These entries and their values trace back to patent US9346769B2.
